# test.target: SSA
# test.protocol: AtheNA, Ab 25 ug/ml
I'd be grateful if you could share measured Athena reading (relative luminescence units) for these entries.
One number for each entry.

Below: 2 binders and their reported Athena reading (relative luminescence units).
{"binder": "CH239_4A/293i (antibody, from a related filing, V domains shown) VH: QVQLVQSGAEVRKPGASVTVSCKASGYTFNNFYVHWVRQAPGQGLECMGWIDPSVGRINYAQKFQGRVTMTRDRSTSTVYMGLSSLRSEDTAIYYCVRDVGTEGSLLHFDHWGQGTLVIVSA VL: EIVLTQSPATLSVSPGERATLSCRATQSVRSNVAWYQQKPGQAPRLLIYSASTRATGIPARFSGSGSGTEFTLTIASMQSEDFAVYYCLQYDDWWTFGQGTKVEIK", "test.value": 306}
{"binder": "CH236_4A/293i (antibody, from a related filing, V domains shown) VH: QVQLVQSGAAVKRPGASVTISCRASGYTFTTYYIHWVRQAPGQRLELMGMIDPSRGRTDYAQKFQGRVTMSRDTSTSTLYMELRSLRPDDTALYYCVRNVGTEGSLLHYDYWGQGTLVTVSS VL: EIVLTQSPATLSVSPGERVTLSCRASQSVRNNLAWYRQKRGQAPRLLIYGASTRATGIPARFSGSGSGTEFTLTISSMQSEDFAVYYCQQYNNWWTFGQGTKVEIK", "test.value": 224}

Your task in this section: give Athena reading (relative luminescence units) for each listed record.
1. CH241 (antibody, from a related filing, V domains shown) VH: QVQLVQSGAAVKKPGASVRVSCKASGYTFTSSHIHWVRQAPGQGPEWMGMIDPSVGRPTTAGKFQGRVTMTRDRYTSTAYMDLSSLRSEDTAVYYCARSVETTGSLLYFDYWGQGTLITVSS VL: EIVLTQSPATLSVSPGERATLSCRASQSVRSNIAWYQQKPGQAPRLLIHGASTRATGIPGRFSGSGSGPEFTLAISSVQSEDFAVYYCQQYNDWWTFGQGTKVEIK
2. CH235_4A (antibody, from a related filing, V domains shown) VH: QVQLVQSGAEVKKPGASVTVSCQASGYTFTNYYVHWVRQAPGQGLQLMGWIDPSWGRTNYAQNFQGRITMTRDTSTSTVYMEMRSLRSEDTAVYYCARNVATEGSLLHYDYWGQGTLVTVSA VL: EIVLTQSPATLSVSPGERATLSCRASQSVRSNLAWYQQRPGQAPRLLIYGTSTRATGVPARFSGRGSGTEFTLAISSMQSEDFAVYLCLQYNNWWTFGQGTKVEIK

output:
1: 15; 2: 13
